Biological target: Recombinant Human NF-kappaB-Inducing Kinase (NIK/MAP3K14) (Homo sapiens)
Sequence (Q99558 whole entry): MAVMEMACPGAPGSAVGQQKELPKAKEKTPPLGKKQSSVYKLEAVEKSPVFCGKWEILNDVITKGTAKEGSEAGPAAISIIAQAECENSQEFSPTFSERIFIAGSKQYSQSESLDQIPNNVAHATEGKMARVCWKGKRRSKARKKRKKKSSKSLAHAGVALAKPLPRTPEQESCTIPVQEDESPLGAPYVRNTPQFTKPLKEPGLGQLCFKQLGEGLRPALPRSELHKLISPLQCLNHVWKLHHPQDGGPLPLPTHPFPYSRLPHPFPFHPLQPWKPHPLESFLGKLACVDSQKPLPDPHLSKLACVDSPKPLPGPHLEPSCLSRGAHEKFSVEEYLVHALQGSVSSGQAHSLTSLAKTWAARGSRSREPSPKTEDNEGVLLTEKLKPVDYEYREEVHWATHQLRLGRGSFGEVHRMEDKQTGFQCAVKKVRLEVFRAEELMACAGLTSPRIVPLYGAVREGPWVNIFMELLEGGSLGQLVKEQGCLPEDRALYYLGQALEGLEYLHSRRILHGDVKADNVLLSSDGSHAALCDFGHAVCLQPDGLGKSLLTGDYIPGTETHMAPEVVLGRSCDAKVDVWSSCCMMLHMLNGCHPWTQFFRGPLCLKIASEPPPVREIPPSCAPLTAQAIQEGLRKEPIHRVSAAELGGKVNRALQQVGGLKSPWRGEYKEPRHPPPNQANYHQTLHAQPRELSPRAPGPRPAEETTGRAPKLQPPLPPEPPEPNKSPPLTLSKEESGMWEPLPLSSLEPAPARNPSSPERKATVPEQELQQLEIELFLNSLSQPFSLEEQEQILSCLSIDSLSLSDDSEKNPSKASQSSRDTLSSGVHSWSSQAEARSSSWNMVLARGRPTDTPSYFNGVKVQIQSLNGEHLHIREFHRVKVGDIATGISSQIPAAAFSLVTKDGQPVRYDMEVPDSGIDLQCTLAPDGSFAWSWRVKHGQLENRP
Test: Biological Assay A2: inhibition of auto-phosphorylation of recombinant human NIK/MAP3K14 (AlphaScreen)
Type: biochemical
Details: auto-phosphorylation; averaged over all measurements on all batches; read-out: αscreen IC50
reportedMetric: IC50 (nM)

> print(dat)
                                   compound  uom  reportedmeasurement
1  COCc1cnc(N)nc1-c1cn(C(C)C)c2cnc(C#CC(C)(C)O)cc12   nM                   37
2  CC(O)(C#Cc1cc2c(-c3nc(N)ncc3F)cn(CCCN3CCOCC3)c2cn1)C1CC1 (stereo not shown)   nM                  190
3  COCCCn1cc(-c2nc(N)ncc2F)c2cc(C#CC3(O)CCCC3)nc(C3CC3)c21   nM                   10
4  CC(C)(O)C#Cc1cc2c(-c3ccnc(N)n3)cn(CC3CCNCC3)c2cn1   nM                  190
